Item-by-item account of IC50
- assaySystem: CDK1/Cyclin B1 (Homo sapiens, UniProt P06493)
- Sequence (P06493 whole entry): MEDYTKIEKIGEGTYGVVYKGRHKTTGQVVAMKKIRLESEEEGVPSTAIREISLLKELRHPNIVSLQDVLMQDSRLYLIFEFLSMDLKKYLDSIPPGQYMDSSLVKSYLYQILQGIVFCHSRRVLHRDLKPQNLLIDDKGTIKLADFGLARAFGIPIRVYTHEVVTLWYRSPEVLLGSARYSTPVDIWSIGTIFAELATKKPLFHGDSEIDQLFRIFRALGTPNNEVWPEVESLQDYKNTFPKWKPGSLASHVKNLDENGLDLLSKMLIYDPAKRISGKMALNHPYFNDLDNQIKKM
- Sequence (P14635 whole entry partner): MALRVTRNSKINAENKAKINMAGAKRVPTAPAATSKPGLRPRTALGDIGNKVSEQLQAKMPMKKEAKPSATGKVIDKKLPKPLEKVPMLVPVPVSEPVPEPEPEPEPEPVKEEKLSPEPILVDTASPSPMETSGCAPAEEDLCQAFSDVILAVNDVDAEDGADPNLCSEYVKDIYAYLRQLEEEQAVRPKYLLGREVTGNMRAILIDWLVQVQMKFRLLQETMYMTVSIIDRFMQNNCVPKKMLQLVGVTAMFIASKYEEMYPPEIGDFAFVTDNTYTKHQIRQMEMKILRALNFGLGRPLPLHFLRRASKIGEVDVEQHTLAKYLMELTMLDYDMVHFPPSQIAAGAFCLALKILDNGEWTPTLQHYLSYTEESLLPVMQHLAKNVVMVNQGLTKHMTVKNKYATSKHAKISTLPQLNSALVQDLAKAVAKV
- assayExplanation: CDK1/Cyclin B1 Biochemical Assay (TR-FRET), 1 mM ATP
- measurementContext: 0.15 μM Rb (Ser780)-biotin substrate, pH7.0, 60 min preincubation, 90 min reaction, room temperature
readout: IC50 (µM)

# compound, measurementUnits, comparator, val
data = [
    ("CN(C(=O)O[C@H]1CC[C@@H](c2cc(Nc3cc4c(cc3F)S(=O)(=O)NC4)n[nH]2)C1)C1CCOC1 (relative stereo)", "µM", ">", 10),
    ("O=C(NC1CCOC1)O[C@H]1CC[C@@H](c2cc(Nc3ccc4c(c3)CS(=O)(=O)N4)n[nH]2)C1 (relative stereo)", "µM", "=", 4.85),
    ("CN1c2ccc(Nc3cc([C@@H]4CC[C@H](OC(=O)NC(C)(C)C)C4)[nH]n3)c(F)c2CS1(=O)=O (relative stereo)", "µM", "=", 0.446),
    ("CC(C)(O)CN1c2ccc(Nc3cc([C@@H]4CC[C@H](OC(=O)NC5(C)CC5)C4)[nH]n3)c(F)c2CS1(=O)=O (relative stereo)", "µM", "=", 0.423),
    ("O=C(NC1CCOC1)O[C@H]1CC[C@@H](c2cc(Nc3ccc4c(c3F)CS(=O)(=O)N4)n[nH]2)C1 (relative stereo)", "µM", ">", 10),
    ("CC(C)NC(=O)O[C@H]1CC[C@@H](c2cc(Nc3ccc4c(c3F)NS(=O)(=O)N4C)n[nH]2)C1 (relative stereo)", "µM", ">", 10),
]

The measured values listed here are drawn from patent US20260297080A1.
